Documented EC50 across a set of compounds
- Tested on: A549
- assay.explanation: Cytotoxicity against human A549 cells after 24 hrs by SRB assay
- Assay type: functional
- test.context: A549, 24 h, read-out: ED50 (the source's name)
quantity: EC50 (µg/mL)

>>> print(df.to_string())
                         chemical_structure  quantity  units_of_measure  observed_result
0  C[C@@H]1O[C@@H](O[C@H]2C[C@](O)(C(=O)CBr)Cc3c(O)c4c(c(O)c32)C(=O)c2ccccc2C4=O)[C@H](F)[C@H](O)[C@@H]1O      EC50             µg/mL              0.6
1  CC(=O)O[C@H]1[C@@H](F)[C@H](O[C@H]2C[C@](O)(C(C)=O)Cc3c(O)c4c(c(O)c32)C(=O)c2ccccc2C4=O)O[C@@H](C)[C@H]1OC(C)=O      EC50             µg/mL             0.07
2  C[C@@H]1O[C@@H](O[C@H]2C[C@](O)(C(=O)CO)Cc3c(O)c4c(c(O)c32)C(=O)c2ccccc2C4=O)[C@H](F)[C@H](O)[C@@H]1O      EC50             µg/mL            0.008
3  CC(=O)[C@]1(O)Cc2c(O)c3c(c(O)c2[C@@H](O[C@@H]2O[C@@H](C)[C@@H](O)[C@@H](O)[C@H]2F)C1)C(=O)c1ccccc1C3=O      EC50             µg/mL            0.008
4  COc1cccc2c1C(=O)c1c(O)c3c(c(O)c1C2=O)C[C@@](O)(C(=O)CO)C[C@@H]3O[C@H]1C[C@H](N)[C@H](O)[C@H](C)O1      EC50             µg/mL             0.03
